Target chain: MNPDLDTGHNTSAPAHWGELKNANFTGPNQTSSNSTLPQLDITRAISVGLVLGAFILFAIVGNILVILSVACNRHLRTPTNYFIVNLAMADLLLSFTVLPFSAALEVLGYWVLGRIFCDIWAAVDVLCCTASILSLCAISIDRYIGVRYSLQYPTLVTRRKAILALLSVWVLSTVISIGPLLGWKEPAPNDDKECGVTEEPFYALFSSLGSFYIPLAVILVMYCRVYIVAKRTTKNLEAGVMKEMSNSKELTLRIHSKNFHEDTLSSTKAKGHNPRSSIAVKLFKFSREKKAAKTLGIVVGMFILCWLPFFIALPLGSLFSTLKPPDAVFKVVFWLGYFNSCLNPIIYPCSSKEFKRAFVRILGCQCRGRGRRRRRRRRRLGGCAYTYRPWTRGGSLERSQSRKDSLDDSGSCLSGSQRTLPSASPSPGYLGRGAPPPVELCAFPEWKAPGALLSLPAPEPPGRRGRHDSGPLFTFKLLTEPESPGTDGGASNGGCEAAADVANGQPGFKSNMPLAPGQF
Reported values of Ki for individual entries
readout: Ki (nM)

molecule | prefixOperator | resultValue
COc1cccc(OC)c1OCCNC[C@@H]1CO[C@H](c2ccccc2)CO1 (relative stereo) | > | 1000
COc1ccccc1OCCNC[C@@H]1COC[C@H](c2ccccc2)O1 (relative stereo) | = | 269
COc1cccc(OC)c1OCCNC[C@@H]1COC(c2ccccc2)(c2ccccc2)CO1 | = | 126
